# Study System: T1, human DDR2 ECD (human, UniProt Q16832 22-399)
# T1 construct: extracellular domain; also called DDR2 ECD protein
# T1 sequence (looked up): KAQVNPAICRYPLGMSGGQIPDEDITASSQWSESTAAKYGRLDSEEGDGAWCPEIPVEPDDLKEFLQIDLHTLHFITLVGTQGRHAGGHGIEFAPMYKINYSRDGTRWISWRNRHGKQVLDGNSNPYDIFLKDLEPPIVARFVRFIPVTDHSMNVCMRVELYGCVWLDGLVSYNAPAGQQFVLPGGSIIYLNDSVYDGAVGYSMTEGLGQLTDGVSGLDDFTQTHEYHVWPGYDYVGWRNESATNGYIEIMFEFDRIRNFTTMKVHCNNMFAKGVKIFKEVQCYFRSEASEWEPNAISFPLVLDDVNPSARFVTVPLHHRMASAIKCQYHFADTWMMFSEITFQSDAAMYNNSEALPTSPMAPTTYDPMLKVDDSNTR
# Experiment Description: ELISA, DDR2 ECD coated, antibody at 1 ug/ml, HRP anti-rabbit detection
Measured Parameter: binding result

>>> measured_value("DDR1-13 (antibody, V domains shown, Rabbit variable domains; Detected with anti-rabbit HRP antibody in the DDR2 ELISA; also called DDR1-13K/DDR1-13H) VH: EQSVEESGGRLVTPGGSLTLTCTASGFSLNNYAIIWVRQAPGKGLEYIGIFNNGDIYYANWAKGRFTISKTSTTVGLKIVSPTTEDTATYFCARTGYRTGGWLWGPGTLVTISS VL: ELVMTQTPSPVSAAVGGTVSISCQSSKSVYNNNALSWFQQKPGQPPKVLIYGVSTLDSGVSSRFSGSGYGTEFTLTISDVQCDDAATYYCAGDYSDISDNNFGGGTELEIK")
"binds"
>>> measured_value("DDR1-21 (antibody, V domains shown, Rabbit variable domains; Detected with anti-rabbit HRP antibody in the DDR2 ELISA; also called DDR1-21K/DDR1-21H) VH: QSLEESGGRLVTPGTPLTLTCTVSGFSLSSYGVHWVRQAPGKGLDWIGKIYPSGSIYYSSWAKGRFTISKTSTTVDLKMTSLTTEDTATYFCVRYLTGSSDLHLWGPGTLVTISS VL: ELVLTQTPSSTSAAVGGTVTISCQSSQSVVDKNWLAWYQQKPGQPPKLLIYEASKLASGVPPRFSGSGSGTQFTLTISGVQCDDAATYYCAGDFESGVSGFGGGTEVEIK")
"binds"
